test: Pharmacokinetics and plasma concentration of Example 101 in Lewis rats after oral administration (CIA study); type: in vivo, Lewis rat; conditions: Lewis, rat, plasma, po, 10 mg/kg, oral, day 0, 10 mg/kg, per test subject; read-out: Cmax
property measured: Cmax
A complete answer gives the number and then names the unit.

Endpoint output: Cmax of CNC(=O)c1[nH]c(C(=O)NC2CCC2)cc1O[C@@H](C)c1ccccc1 (stereo in doubt) . Value?
1880 ng/mL

* * *

assay: Pharmacokinetics and plasma concentration of Example 101 in Lewis rats after oral administration (CIA study); assay type: in vivo, Lewis rat; settings: Lewis, rat, plasma, oral, 10 mg/kg, plasma, oral, day 20, 10 mg/kg, 10 h; read-out: Mean Concentration
property measured: concentration at 10 h (ng/mL)
Give the value, in units of ng/mL, as a plain number.

Consider the molecule shown here: CNC(=O)c1[nH]c(C(=O)NC2CCC2)cc1O[C@@H](C)c1ccccc1 (stereo in doubt) What is its recorded concentration at 10 h?
1450

* * *

assay: Beagle dog PK study 1 of Example 101 (propylene glycol-based formulation, IV and PO), with clinical observations; type: in vivo; conditions: beagle, dog, plasma, iv, 1 mg/kg, dog PK study 1, IV, 0.25 h, Test Animal 2; read-out: Plasma concentration
property measured: concentration at 0.25 h (ng/mL)
Unit ng/mL implied. Number only.

Fill in: concentration at 0.25 h of CNC(=O)c1[nH]c(C(=O)NC2CCC2)cc1O[C@@H](C)c1ccccc1 (stereo in doubt) [Example 101] is ___
954

* * *

assay: Beagle dog PK study 2 of Example 101 (HPβCD based formulation, IV), with clinical observations; format: in vivo; settings: beagle, dog, plasma, iv, 1 mg/kg, dog PK study 2, IV 1 mg/kg, HPβCD, 2 h, Test Animal 2; read-out: Plasma concentration
property measured: concentration at 2 h (ng/mL)
Please respond with the number in ng/mL and leave the unit unwritten.

Value lookup for concentration at 2 h; key = CNC(=O)c1[nH]c(C(=O)NC2CCC2)cc1O[C@@H](C)c1ccccc1 (stereo in doubt) [Example 101]
54.1

* * *

assay: Beagle dog PK study 2 of Example 101 (HPβCD based formulation, IV), with clinical observations; type: in vivo; details: beagle, dog, plasma, iv, 1 mg/kg, dog PK study 2, IV 1 mg/kg, HPβCD, Test Animal 3
property measured: AUC(0-t) (ng·h/mL)
Enter your answer as a number in ng·h/mL; do not include the unit.

Using the record for CNC(=O)c1[nH]c(C(=O)NC2CCC2)cc1O[C@@H](C)c1ccccc1 (stereo in doubt) [Example 101] , report its AUC(0-t).
1370

* * *

experiment: Beagle dog PK study 1 of Example 101 (propylene glycol-based formulation, IV and PO), with clinical observations; type: in vivo; conditions: beagle, dog, plasma, po, 5 mg/kg, dog PK study 1, oral, Test Animal 3
property measured: AUC(0-inf) (ng·h/mL)
Enter your answer as a number in ng·h/mL; do not include the unit.

Which AUC(0-inf) reading was recorded for the compound CNC(=O)c1[nH]c(C(=O)NC2CCC2)cc1O[C@@H](C)c1ccccc1 (stereo in doubt) ?
5010

* * *

assay: Beagle dog PK study 2 of Example 101 (HPβCD based formulation, IV), with clinical observations; type: in vivo; details: beagle, dog, plasma, iv, 1 mg/kg, dog PK study 2, IV 1 mg/kg, HPβCD, 0.083 h, mean; read-out: Average plasma concentration, Mean
property measured: concentration at 0.083 h (ng/mL)
Supply the numeric figure in ng/mL, leaving out any unit text.

Quick check: concentration at 0.083 h of CNC(=O)c1[nH]c(C(=O)NC2CCC2)cc1O[C@@H](C)c1ccccc1 (stereo in doubt) [Example 101] ?
1440

* * *

Assign half-life at 1 μM to each entry below.
experiment: Intrinsic clearance in liver microsomes, rat; type: in vitro ADME; conditions: rat, liver microsomes, pH 7.4, rat liver microsomes, Method 1; read-out: Half-Life (T1/2) (min), Rat
Provide the reading as a plain figure in min.

Report half-life at 1 μM for CNC(=O)c1[nH]c(C(=O)NC2CCC2)cc1OC(C)c1ccccc1 (single isomer, unassigned) please.
41

Request the reported half-life at 1 μM associated with CNC(=O)c1[nH]c(C(=O)NC2CCC(F)(F)CC2)cc1OC(C)c1ccccc1 (single isomer, unassigned)
19

* * *

assay: Beagle dog PK study 2 of Example 101 (HPβCD based formulation, IV), with clinical observations; format: in vivo; settings: beagle, dog, plasma, iv, 1 mg/kg, dog PK study 2, IV 1 mg/kg, HPβCD, Test Animal 3; read-out: MRTInf—obs
property measured: MRT inf

Would you kindly share the measured MRT inf for CNC(=O)c1[nH]c(C(=O)NC2CCC2)cc1O[C@@H](C)c1ccccc1 (stereo in doubt) ?
1.2 h

* * *

test: Beagle dog PK study 1 of Example 101 (propylene glycol-based formulation, IV and PO), with clinical observations; type: in vivo; conditions: beagle, dog, plasma, po, 5 mg/kg, dog PK study 1, oral, mean; read-out: MRTInf—obs
property measured: MRT inf (h)
Field format: number, assumed h, no unit text.

Could you share which MRT inf value was measured for CNC(=O)c1[nH]c(C(=O)NC2CCC2)cc1O[C@@H](C)c1ccccc1 (stereo in doubt) ?
1.73

* * *

experiment: Beagle dog PK study 1 of Example 101 (propylene glycol-based formulation, IV and PO), with clinical observations; type: in vivo; details: beagle, dog, plasma, iv, 1 mg/kg, dog PK study 1, IV, 2 h, Test Animal 3; read-out: Plasma concentration
property measured: concentration at 2 h (ng/mL)
Field: numeric (ng/mL). Do not append units.

Dear colleague, I am looking for the recorded concentration at 2 h of the following compound: CNC(=O)c1[nH]c(C(=O)NC2CCC2)cc1O[C@@H](C)c1ccccc1 (stereo in doubt)
313

* * *

experiment: Pharmacokinetics and plasma concentration of Example 101 in Lewis rats after oral administration (CIA study); format: in vivo, Lewis rat; details: Lewis, rat, plasma, oral, 10 mg/kg, oral, day 20, 10 mg/kg, 0.5 h, per test subject; read-out: Plasma concentration
property measured: concentration at 0.5 h (ng/mL)
Report the value in ng/mL with no unit label.

Need concentration at 0.5 h of CNC(=O)c1[nH]c(C(=O)NC2CCC2)cc1O[C@@H](C)c1ccccc1 (stereo in doubt) [Example 101] , thanks.
1660

* * *

assay: Plasma concentration of Example 101 in UUO rats by LC-MS/MS; format: in vivo, rat; details: male, SD, rat, plasma, po, 30 mg/kg, Mean plasma concentration of Example 101, male SD rats, oral, 4 h after final treatment, mean of 8 subjects
property measured: concentration at 4 h (ng/mL)
Please give a number only; it is taken to be in ng/mL.

Fill in: concentration at 4 h of CNC(=O)c1[nH]c(C(=O)NC2CCC2)cc1O[C@@H](C)c1ccccc1 (stereo in doubt) is ___
846

* * *

test: Pharmacokinetics and plasma concentration of Example 101 in Lewis rats after oral administration (CIA study); format: in vivo, Lewis rat; details: Lewis, rat, plasma, oral, 10 mg/kg, oral, day 0, 10 mg/kg, 2 h, per test subject; read-out: Plasma concentration
property measured: concentration at 2 h (ng/mL)
Response body: numeric value in ng/mL, unit text excluded.

I have this compound here, CNC(=O)c1[nH]c(C(=O)NC2CCC2)cc1O[C@@H](C)c1ccccc1 (stereo in doubt) , and I need its recorded concentration at 2 h.
1110

* * *

biological target: BRD4 BD2 (Homo sapiens (Human), UniProt O60885); test: NanoBRET bromodomain assay, NanoLuc-BRD4-BD2 fusion in HEK293 cells; details: IC50 for BRD4 BD1 divided by IC50 for BRD4 BD2; qualitative if an IC50 is at the upper limit;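 note: tracer displacement BRET read in transfected cells after 2 h compound exposure at 37 °C, signal in milliBRET units corrected against no-tracer background wells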
property measured: Fold selectivity

Observe how each entry below is paired with its result.
compound	target desc	Fold selectivity
CNC(=O)c1[nH]c(C(=O)NC2CCC2)cc1O[C@@H](C)c1ccccc1 (stereo in doubt)	BRD4 BD2 (Homo sapiens (Human), UniProt O60885)	XXX (Fold >200)
CCNC(=O)c1cc(OC(c2ccccc2)c2ccccc2)c(C(=O)NC)[nH]1	BRD4 BD2 (Homo sapiens (Human), UniProt O60885)	XX (Fold >50 and ≤200)
CNC(=O)c1[nH]c(C(=O)NC23CC(C2)C3)cc1O[C@@H](C)c1ccccc1	BRD4 BD2 (Homo sapiens (Human), UniProt O60885)	XX (Fold >50 and ≤200)
CCNC(=O)c1cc(OC(C)c2cccc(Cl)c2)c(C(=O)NC)[nH]1 (racemic)	BRD4 BD2 (Homo sapiens (Human), UniProt O60885)	XX (Fold >50 and ≤200)

Read the next record carefully.
So what's the measured Fold selectivity for this one? CCNC(=O)c1cc(OC(C)c2ccc(Cl)cc2)c(C(=O)NC)[nH]1 (single isomer, unassigned) [Example 18]
XXX (Fold >200)
